experimental protocol: In vivo pharmacokinetics assay in mice via IV and PO
Set-up: species or system ICR mice
cond: male, ICR, mouse, PO 30 mg/kg, plasma, read-out: Cmax
value type: Cmax (ng/mL)
Give a bare numeral; the unit ng/mL is implied.

Exercise: Any idea what its Cmax is? The compound is CN(C(=O)c1cc2c(cn1)nc(N)c1cncn12)[C@@H]1COc2cc(C(F)(F)F)ccc21
Solution: 7500

###

experimental protocol: in vitro
cond: cynomolgus monkey, microsomes
value type: microsomal CLint at 1 μM

Exercise: // microsomal CLint at 1 μM lookup, key: O=C(O)Cc1ccccc1Nc1c(Cl)cccc1Cl
Solution: < 9.6 µL/min/mg
